target: A*02:07; assay: SPR; low fitting confidence
The following binders are shown together with reported Kd values.
measurement-kind: Kd

binder="AS170036 VL1VH1-98I108A (scFv) scFv: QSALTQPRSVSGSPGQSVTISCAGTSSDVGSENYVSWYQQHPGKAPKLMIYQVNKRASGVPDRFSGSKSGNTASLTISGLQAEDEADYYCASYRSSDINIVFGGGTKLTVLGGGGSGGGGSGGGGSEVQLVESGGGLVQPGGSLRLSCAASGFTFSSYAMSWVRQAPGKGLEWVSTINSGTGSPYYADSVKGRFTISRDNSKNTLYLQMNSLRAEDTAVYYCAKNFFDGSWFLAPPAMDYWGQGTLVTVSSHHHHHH" measurement_kind=Kd observed_result="> 16 µM"
binder="AS170036 VL1VH1-56N108A (scFv) scFv: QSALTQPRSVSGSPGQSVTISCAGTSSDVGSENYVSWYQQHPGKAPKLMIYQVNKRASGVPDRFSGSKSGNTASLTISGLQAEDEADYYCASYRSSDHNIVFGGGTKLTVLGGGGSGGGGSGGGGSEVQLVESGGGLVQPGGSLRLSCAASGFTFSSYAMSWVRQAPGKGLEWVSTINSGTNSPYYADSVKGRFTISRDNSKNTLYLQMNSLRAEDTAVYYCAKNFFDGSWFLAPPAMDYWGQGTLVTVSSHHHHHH" measurement_kind=Kd observed_result="> 9.1 µM"
binder="AS170036 VL1VH1-56N98I (scFv) scFv: QSALTQPRSVSGSPGQSVTISCAGTSSDVGSENYVSWYQQHPGKAPKLMIYQVNKRASGVPDRFSGSKSGNTASLTISGLQAEDEADYYCASYRSSDINIVFGGGTKLTVLGGGGSGGGGSGGGGSEVQLVESGGGLVQPGGSLRLSCAASGFTFSSYAMSWVRQAPGKGLEWVSTINSGTNSPYYADSVKGRFTISRDNSKNTLYLQMNSLRAEDTAVYYCAKNFFDGSWFLGPPAMDYWGQGTLVTVSSHHHHHH" measurement_kind=Kd observed_result="> 17 µM"
binder="AS170036 VL1VH1 (scFv) scFv: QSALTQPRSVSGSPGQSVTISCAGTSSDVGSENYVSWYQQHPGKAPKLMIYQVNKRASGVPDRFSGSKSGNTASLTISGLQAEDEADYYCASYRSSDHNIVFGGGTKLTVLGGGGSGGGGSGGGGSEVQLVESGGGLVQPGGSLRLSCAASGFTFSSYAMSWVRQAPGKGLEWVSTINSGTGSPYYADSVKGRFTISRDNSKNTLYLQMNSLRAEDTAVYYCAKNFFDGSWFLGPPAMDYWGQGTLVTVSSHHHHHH" measurement_kind=Kd observed_result="> 18 µM"
